Data credit: the Human Domainome abundance scans (Beltran et al. 2025)

B1: Mineralocorticoid receptor, residues 600 to 675; numbered along this chain, P08235 (parent)
chain: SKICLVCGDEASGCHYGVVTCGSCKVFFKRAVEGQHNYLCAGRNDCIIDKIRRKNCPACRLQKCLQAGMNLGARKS

Variants of: B1
Assay: abundance fitness (aPCA) (normalised: wild type 0, dead -1); higher = more abundant; growth selection in yeast, the domain comes from the species named
Conditions: Homo sapiens
reported_metric: abundance fitness
In your answer, state the number alone without any accompanying words.

Look up abundance fitness: SKICLVCGDEASGCHYGVVTCGSCKVFFKRAVEGMHNYLCAGRNDCIIDKIRRKNCPACRLQKCLQAGMNLGARKS
-0.121

For the variant SKICLVCGDEASGCHYGVVTCGSCKVFFKRAVEGQHNYLCAGRNDCIIDKIRRKNCPACRLQKCRQAGMNLGARKS , what abundance fitness is on record?
-0.055

Fill in: abundance fitness of SKICLVCGDEASGCHYGVVTCGSCKVFFKRAVEGQHCYLCAGRNDCIIDKIRRKNCPACRLQKCLQAGMNLGARKS is ___
-0.036

GET /values?readout=abundance fitness&item= SKICLVCGDEASGCHYGVVTCGSCKRFFKRAVEGQHNYLCAGRNDCIIDKIRRKNCPACRLQKCLQAGMNLGARKS
0.033

Which abundance fitness is reported for this variant? SKICLVCGDEASGCHYGVVTCGSCKVFFKRAVEGQHNYLCAGRNDCIIDKIRRKNCPACRLQKCLQAGMILGARKS
-0.02

Reported abundance fitness, variant SKICLVCGDEASGCHYGRVTCGSCKVFFKRAVEGQHNYLCAGRNDCIIDKIRRKNCPACRLQKCLQAGMNLGARKS : ____
-0.078

Given the entry SKICLVCGDEDSGCHYGVVTCGSCKVFFKRAVEGQHNYLCAGRNDCIIDKIRRKNCPACRLQKCLQAGMNLGARKS , report its measured abundance fitness.
-0.134

Query: abundance fitness; subject: SKICLVCGDEASGCHYGVVTCGSCKVFFKRAVEGQHNYLCAGRGDCIIDKIRRKNCPACRLQKCLQAGMNLGARKS
-0.004

Could you share which abundance fitness value was measured for SKICLVCGDEASGCHNGVVTCGSCKVFFKRAVEGQHNYLCAGRNDCIIDKIRRKNCPACRLQKCLQAGMNLGARKS ?
-0.147

May I ask what abundance fitness has been recorded for SKICLVCGDEASACHYGVVTCGSCKVFFKRAVEGQHNYLCAGRNDCIIDKIRRKNCPACRLQKCLQAGMNLGARKS ?
-0.111

Recorded abundance fitness of SKICLVCGDEASGCHYGVVTCGSCKVFFKRAVEGQHNYLCAGRNDCIIDKIRRKWCPACRLQKCLQAGMNLGARKS , please.
-0.085

Please report the recorded abundance fitness for SKICLVCGDEASGCHYGVVTCGSCKVFFKRAVEGQHNYLCAGRNDCIIDKIRRKNCPACRLQKCLQAGANLGARKS .
-0.058

Any idea what its abundance fitness is? The variant is SKICLVCGDEASGCHYGVVTCGSCKVFFKRAVEGQHNYLCAGRNDCIIDKIRRKNCPACRLQKCNQAGMNLGARKS
-0.058

Reported abundance fitness, variant SKICLVCGDEASGCHYGVVTCGSCKVFFERAVEGQHNYLCAGRNDCIIDKIRRKNCPACRLQKCLQAGMNLGARKS : ____
-0.105

Record request: abundance fitness value, item SKICLVCGDEASGCHHGVVTCGSCKVFFKRAVEGQHNYLCAGRNDCIIDKIRRKNCPACRLQKCLQAGMNLGARKS
-0.022

What value of abundance fitness has been reported for the following variant? SKICLVCGDEASGCHYGVVTCGSCKVFFKRLVEGQHNYLCAGRNDCIIDKIRRKNCPACRLQKCLQAGMNLGARKS
-0.553

abundance fitness for SKICLVCGDEAYGCHYGVVTCGSCKVFFKRAVEGQHNYLCAGRNDCIIDKIRRKNCPACRLQKCLQAGMNLGARKS ?
0.096

Which abundance fitness is reported for this variant? SKICLQCGDEASGCHYGVVTCGSCKVFFKRAVEGQHNYLCAGRNDCIIDKIRRKNCPACRLQKCLQAGMNLGARKS
-0.803

Please report the recorded abundance fitness for SKICLVCGDEASGCHYGVVTCGSCKVFFKRAVEGQHNYLCAGRNDCIIDKIRRKNCPACRLQKCLQAGMKLGARKS .
0.058

Give the measured abundance fitness of SKICLVCGDEASGCHYGVVTCGSCKVFFKRAVEGQHNYLCAGRNDCIIDKIRRKNCPACRDQKCLQAGMNLGARKS .
-0.774

Return reported abundance fitness; argument: SKICLVCLDEASGCHYGVVTCGSCKVFFKRAVEGQHNYLCAGRNDCIIDKIRRKNCPACRLQKCLQAGMNLGARKS
-0.08

I have this variant here, SKICLVCGKEASGCHYGVVTCGSCKVFFKRAVEGQHNYLCAGRNDCIIDKIRRKNCPACRLQKCLQAGMNLGARKS , and I need its recorded abundance fitness.
-0.231
